# CTG-3D luminescence at 96 h per entry
- Tested on: HCI-012 (organoid from a breast cancer xenograft)
- assay_protocol: CTG-3D luminescence at 96 h relative to day-0 seeding control (ratio to day 0); higher = more growth / less cytotoxicity; PDxO 3D drug screen (set 2), 96 h, CTG-3D normalised to day-0 seeding control.
- setup_conditions: 0.00025 µM; days in culture: 214

// returns reported CTG-3D luminescence at 96 h for input CO[C@H]1C[C@@H]2CC[C@@H](C)[C@@](O)(O2)C(=O)C(=O)N2CCCC[C@H]2C(=O)O[C@H]([C@H](C)C[C@@H]2CC[C@@H](O)[C@H](OC)C2)CC(=O)[C@H](C)/C=C(\C)[C@@H](O)[C@@H](OC)C(=O)[C@H](C)C[C@H](C)/C=C/C=C/C=C/1C
1.93

// returns reported CTG-3D luminescence at 96 h for input CC(C)n1nc(-c2ccc3oc(N)nc3c2)c2c(N)ncnc21
1.84

// returns reported CTG-3D luminescence at 96 h for input O=C(c1cc(Cc2n[nH]c(=O)c3ccccc23)ccc1F)N1CCN(C(=O)C2CC2)CC1
3.14

// returns reported CTG-3D luminescence at 96 h for input CO[C@H]1C[C@@H]2CC[C@@H](C)[C@@](O)(O2)C(=O)C(=O)N2CCCC[C@H]2C(=O)O[C@H]([C@H](C)C[C@@H]2CC[C@@H](OCCO)[C@H](OC)C2)CC(=O)[C@H](C)/C=C(\C)[C@@H](O)[C@@H](OC)C(=O)[C@H](C)C[C@H](C)/C=C/C=C/C=C/1C
1.49

// returns reported CTG-3D luminescence at 96 h for input Cc1c(CN2CCN(C(=O)[C@H](C)O)CC2)sc2c(N3CCOCC3)nc(-c3cnc(N)nc3)nc12
3.38
